Origin of values: ChEMBL document CHEMBL1671625

# EXPERIMENT: Cytotoxicity against human Huh-Mono cells after 3 days by MTT assay
# Type: cell-based
Here the recorded CC50 at 72 h is given for each entry.

| COMPOUND | CC50 at 72 h |
| --- | --- |
| [N-]=[N+]=N[C@]1(CO)O[C@@H](n2ccc(N)nc2=O)[C@H](O)[C@@H]1O [4'-AZIDOCYTIDINE] | > 33 µM |
| CCC[C@H](NC(=O)[C@@H]1[C@H]2CCC[C@H]2CN1C(=O)[C@@H](NC(=O)[C@@H](NC(=O)c1cnccn1)C1CCCCC1)C(C)(C)C)C(=O)C(=O)NC1CC1 | > 33 µM |
| C/C=C/C[C@@H](C)[C@@H](O)[C@H]1C(=O)N[C@@H](CC)C(=O)N(C)[C@H](C)C(=O)N(CC)[C@@H](C(C)C)C(=O)N[C@@H](C(C)C)C(=O)N(C)[C@@H](CC(C)C)C(=O)N[C@@H](C)C(=O)N[C@H](C)C(=O)N(C)[C@@H](CC(C)C)C(=O)N(C)[C@@H](CC(C)C)C(=O)N(C)[C@@H](C(C)C)C(=O)N1C [ALISPORIVIR] | > 3 µM |
| O=C(O)c1cccs1 [THIOPHENE CARBOXYLIC ACID] | > 33 µM |
| C[C@@]1(F)[C@H](O)[C@@H](CO)O[C@@H]1n1ccc(N)nc1=O | > 33 µM |
| Brc1c(Br)c(Br)c2[nH]nnc2c1Br [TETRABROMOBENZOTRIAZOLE] | > 100 µM |

###

# EXPERIMENT: Cytotoxicity against human HuH6 cells after 3 days by MTT assay
# Assay type: cell-based
Here the recorded CC50 at 72 h is given for each entry.
ASSAY ENDPOINT: CC50 at 72 h

| MOLECULE | READING |
| --- | --- |
| C[C@@]1(O)[C@H](O)[C@@H](CO)O[C@H]1n1ccc(N)nc1=O | > 33 µM |
| CC(C)CCn1c(=O)c(C2=NS(=O)(=O)c3ccccc3N2)c(O)c2ccccc21 | > 33 µM |
| C[C@@]1(F)[C@H](O)[C@@H](CO)O[C@@H]1n1ccc(N)nc1=O | > 33 µM |
| OC[C@H]1O[C@@H](n2nnc3cc(Cl)c(Cl)cc32)[C@H](O)[C@@H]1O | > 100 µM |
| O=C(O)CNc1ccc(-c2ccc(Cl)cc2)c(COc2ccc(-c3nc4cc(C(=O)O)ccc4n3C3CCCCC3)cc2)c1 | 21 µM |
| Brc1c(Br)c(Br)c2[nH]nnc2c1Br | > 100 µM |
| [N-]=[N+]=N[C@]1(CO)O[C@@H](n2ccc(N)nc2=O)[C@H](O)[C@@H]1O | > 33 µM |
| C[C@@]1(O)[C@H](O)[C@@H](CO)O[C@H]1n1cnc2c(N)ncnc21 | > 33 µM |
| O=C(O)c1cccs1 | > 33 µM |
| CNC(=O)c1c(-c2ccc(F)cc2)oc2cc(N(CCO)S(C)(=O)=O)c(C3CC3)cc12 | > 33 µM |
| CCC[C@H](NC(=O)[C@@H]1[C@H]2CCC[C@H]2CN1C(=O)[C@@H](NC(=O)[C@@H](NC(=O)c1cnccn1)C1CCCCC1)C(C)(C)C)C(=O)C(=O)NC1CC1 | 25 µM |
| C/C=C/C[C@@H](C)[C@@H](O)[C@H]1C(=O)N[C@@H](CC)C(=O)N(C)[C@H](C)C(=O)N(CC)[C@@H](C(C)C)C(=O)N[C@@H](C(C)C)C(=O)N(C)[C@@H](CC(C)C)C(=O)N[C@@H](C)C(=O)N[C@H](C)C(=O)N(C)[C@@H](CC(C)C)C(=O)N(C)[C@@H](CC(C)C)C(=O)N(C)[C@@H](C(C)C)C(=O)N1C | > 3 µM |
| CC(C)(C)NC(=O)N[C@H](C(=O)N1C[C@H]2[C@@H]([C@H]1C(=O)NC(CC1CCC1)C(=O)C(N)=O)C2(C)C)C(C)(C)C (some centres undefined) | > 33 µM |
| COc1ccc2c(O[C@@H]3C[C@H]4C(=O)N[C@]5(C(=O)O)C[C@H]5/C=C\CCCCC[C@H](NC(=O)OC5CCCC5)C(=O)N4C3)cc(-c3csc(NC(C)C)n3)nc2c1 | > 3 µM |
